B1: Hairpin Ribozyme (parent)
chain: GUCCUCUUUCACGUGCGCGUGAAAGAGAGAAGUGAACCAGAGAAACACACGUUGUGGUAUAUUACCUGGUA

# Variants of: B1
# assayNotes: self-cleavage, relative activity (ratio to wild type); higher = more cleavage; co-transcriptional
Listing of recorded self-cleavage by entry.

{"mutationId": "G42U G56U", "self-cleavage": 0.169}
{"mutationId": "C10G U20C", "self-cleavage": 0.647}
{"mutationId": "A22C A30C", "self-cleavage": 0.16}
{"mutationId": "A45U U70A", "self-cleavage": 0.0397}
{"mutationId": "G15C A35G", "self-cleavage": 1.08}

**Query** Which self-cleavage value is on record for A43G A44U ?
**Result** 0.207

**Query** Which self-cleavage value is on record for G17U A71G ?
**Result** 1.1

**Query** Which self-cleavage value is on record for G29C A35G ?
**Result** 0.178

**Query** Which self-cleavage value is on record for A22G A30C ?
**Result** 0.182

**Query** Which self-cleavage value is on record for C4G G56A ?
**Result** 0.249

Just for reference, the RNAGym collection of RNA variant scans (doi:10.7554/elife.80360) is where these values come from.
